Sourced from patent US8629277B2

Field: GI50. Provide a value for each of the compounds that follow.
biological target: Ba/F3 Bcr-Abl/T315I (Homo sapiens, UniProt P00519, T315I, cells depend on it); details: read-out: Inhibitory concentrations (IC50) Ba/F3 Bcr-Abl/T315I; imatinib resistant cell line; CCK-8, 72 h

Endpoint output: GI50 of Oc1ccc(C=Cc2nc(Cc3ccccc3)no2)cc1O [Compound of Example 4] . Value?
< 10 µM

Given the entry CN1CCC(c2noc(C=Cc3ccc(O)c(O)c3)n2)CC1 [Compound of Example 20] , report its measured GI50.
11 to 100 µM

Can you share its GI50? I mean this compound: Oc1ccc(C=Cc2nc(C3CC3)no2)cc1O [Compound of Example 37]
< 10 µM

Recorded GI50 of CC(C)N1CCC(Cc2noc(C=Cc3ccc(O)c(O)c3)n2)CC1 [Compound of Example 22] , please.
11 to 100 µM

If you can, please state the reported GI50 value of CCCCCCCCCc1noc(C=Cc2ccc(O)c(O)c2)n1 [Compound of Example 34] .
< 10 µM

Which GI50 value belongs to CCCc1noc(C=Cc2ccc(O)c(NS(C)(=O)=O)c2)n1 [Compound of Example 10] ?
11 to 100 µM

Data request, read-out GI50, for CCCCCCc1noc(C=Cc2ccc(O)c(O)c2)n1 [Compound of Example 43]
< 10 µM

// query GI50 value for entry Oc1ccc(C=Cc2nc(CC3CCCCC3)no2)cc1O [Compound of Example 46]
< 10 µM

Using the record for CN(C)CCN1CCC(Cc2noc(C=Cc3ccc(O)c(O)c3)n2)CC1 [Compound of Example 24] , report its GI50.
11 to 100 µM

Query: GI50; subject: Oc1ccc(C=Cc2nc(C3CCCCC3)no2)cc1O [Compound of Example 61]
< 10 µM

So what's the measured GI50 for this one? CCc1noc(C=Cc2ccc(O)c(O)c2)n1 [Compound of Example 2]
< 10 µM

Returns the measured GI50 for the input compound. Input: Oc1ccc(C=Cc2nc(-c3cccnc3)no2)cc1O [Compound of Example 55]
< 10 µM

I am curious: what GI50 value has been reported for CCCCCCCCc1noc(C=Cc2ccc(O)c(O)c2)n1 [Compound of Example 49] ?
< 10 µM

Return reported GI50; argument: CCCCCc1noc(C=Cc2ccc(O)c(O)c2)n1 [Compound of Example 40]
< 10 µM

Given the entry Oc1ccc(C=Cc2nc(C3CCCCCC3)no2)cc1O [Compound of Example 58] , report its measured GI50.
< 10 µM

# input compound: CCCc1nc(C=Cc2ccc(O)c(N)c2)no1 [Compound of Example 12] ; wanted: its GI50
< 10 µM

// GI50 lookup, key: Cc1noc(C=Cc2ccc(O)c(O)c2)n1 [Compound of Example 1]
11 to 100 µM

Can you share its GI50? I mean this compound: CCCCCCCc1noc(C=Cc2ccc(O)c(O)c2)n1 [Compound of Example 52]
< 10 µM

Sample CCCc1noc(C=Cc2ccc(O)c(O)c2)n1 [Compound of Example 3] — what was its GI50?
< 10 µM

Query (compound): Oc1ccc(C=Cc2nc(CC3CCN(Cc4ccccc4)CC3)no2)cc1O [Compound of Example 31] ; field requested: GI50
11 to 100 µM

====

target: Ba/F3 Bcr-Abl/WT (Homo sapiens); construct: fused on or other part: P11274 (Breakpoint cluster region protein); experiment: Cell proliferation and cytotoxicity CCK-8 assay; assay type: cell-based; conditions: imatinib sensitive cell line; CCK-8, 72 h; read-out: Inhibitory concentrations (IC50) Ba/F3 Bcr-Abl/WT
measurement_name: GI50

Give its GI50 value. Item: `Oc1ccc(C=Cc2nc(C3CCCCC3)no2)cc1O`
< 10 µM

Need GI50, item `Oc1ccc(C=Cc2nc(CC3CCCCC3)no2)cc1O`
< 10 µM

Need GI50 of `CC(C)N1CCC(Cc2noc(C=Cc3ccc(O)c(O)c3)n2)CC1` , thanks.
11 to 100 µM

Which GI50 value is on record for `CCCCCCCCCc1noc(C=Cc2ccc(O)c(O)c2)n1` ?
< 10 µM

Item `Oc1ccc(C=Cc2nc(Cc3ccccc3)no2)cc1O` has what recorded GI50?
< 10 µM

What value of GI50 has been reported for the following compound? `Oc1ccc(C=Cc2nc(C3CC3)no2)cc1O`
< 10 µM

Quick check: GI50 of `CCCc1nc(C=Cc2ccc(O)c(N)c2)no1` ?
11 to 100 µM

Suppose we examine the compound `CCCCCCCc1noc(C=Cc2ccc(O)c(O)c2)n1` ; what GI50 value has been reported?
< 10 µM

// query GI50 value for entry `CCCCCCc1noc(C=Cc2ccc(O)c(O)c2)n1`
< 10 µM
